Test system: VAP-1 enzyme (SSAO) activity in rat plasma
test.method.notes: Inhibitory effect on rat VAP-1 enzyme (SSAO) activity in rat plasma after oral administration
Type: in vivo, Wistar male rats
assay.setup: rat plasma VAP-1 activity, oral 0.3 mg/kg, 3 h after administration
Structures can show the parent of a compound that is named as a salt.
readout.name: Inhibition Ratio (%) 3 h

- compound: "CC(=O)N1CCC(COc2ncc(-c3cccc(COC(=O)NC(=N)N)c3F)cn2)CC1 [Example 11]"
  val: "70%"
- compound: "CC(=O)N1CCC(OC2CCN(c3cccc(COC(=O)NC(=N)N)c3F)CC2)CC1 [Example 220]"
  val: "80%"
- compound: "N=C(N)NC(=O)OCc1cccc(N2CCN(C(=O)CC3CCOCC3)CC2)c1F [Example 273]"
  val: "74%"
- compound: "Cc1ccc(N2CCN(c3cccc(COC(=O)NC(=N)N)c3F)CC2)cn1 [Example 300]"
  val: "93%"
- compound: "CC(=O)N1CCC(C2CN(c3cccc(COC(=O)NC(=N)N)c3F)C2)CC1 [Example 559]"
  val: "89%"
- compound: "COCc1ccc(N2CCN(c3cccc(COC(=O)NC(=N)N)c3F)CC2)cn1 [Example 554]"
  val: "100%"
- compound: "CC1(O)CCN(c2ncc(N3CCN(c4cccc(COC(=O)NC(=N)N)c4F)CC3)cn2)CC1 [Example 110]"
  val: "96%"
- compound: "N=C(N)NC(=O)OCc1cccc(N2CCC(c3ccncc3)CC2)c1F [Example 52]"
  val: "68%"
- compound: "Cn1cc(OC2CN(c3cccc(COC(=O)NC(=N)N)c3F)C2)ccc1=O [Example 557]"
  val: "71%"
- compound: "COCC(=O)N1CCC(C2CN(c3cccc(COC(=O)NC(=N)N)c3F)C2)CC1 [Example 562]"
  val: "81%"
- compound: "COCc1cc(N2CCN(c3cccc(COC(=O)NC(=N)N)c3F)CC2)ccn1 [Example 566]"
  val: "74%"
- compound: "N=C(N)NC(=O)OCc1cccc(-c2cnc(N3CC[C@H](F)C3)nc2)c1 [Example 178]"
  val: "73%"
- compound: "N=C(N)NC(=O)OCc1cccc(N2CC(C3CCN(C(=O)C4CC4)CC3)C2)c1F [Example 561]"
  val: "92%"
- compound: "N=C(N)NC(=O)OCc1cccc(-c2cnc(OCC3CCN(C(=O)c4cccnc4)CC3)nc2)c1F [Example 29]"
  val: "60%"
- compound: "N=C(N)NC(=O)OCc1cccc(N2CCN(c3cnc(N4CC[C@@H](F)C4)nc3)CC2)c1F [Example 118]"
  val: "86%"
- compound: "Cc1cc(COC2CN(c3cccc(COC(=O)NC(=N)N)c3F)C2)cc(C)n1 [Example 555]"
  val: "69%"
- compound: "N=C(N)NC(=O)OCc1cccc(-c2cnc(OCC3CCN(C(=O)C4CC4)CC3)nc2)c1F [Example 74]"
  val: "74%"
- compound: "CC(=O)Nc1nc(CCc2cccc(CNC(=O)NC(=N)N)c2)cs1.Cl [Example 83]"
  val: "66%"
- compound: "Cl.N=C(N)NC(=O)OCc1cccc(-c2cnc(N3CCOCC3)nc2)c1F [Example 81]"
  val: "78%"
- compound: "COCCC(=O)N1CCC(C2CN(c3cccc(COC(=O)NC(=N)N)c3F)C2)CC1 [Example 563]"
  val: "77%"
- compound: "COCc1cncc(N2CCN(c3cccc(COC(=O)NC(=N)N)c3F)CC2)c1 [Example 558]"
  val: "87%"
- compound: "COc1ncc(N2CCN(c3cccc(COC(=O)NC(=N)N)c3F)CC2)cn1 [Example 126]"
  val: "97%"
- compound: "COC1CN(c2ncc(-c3cccc(COC(=O)NC(=N)N)c3F)cn2)C1 [Example 63]"
  val: "87%"
- compound: "CC(=O)N1CCC(COc2ncc(-c3cccc(CNC(=O)NC(=N)N)c3F)cn2)CC1 [Example 105]"
  val: "38%"
- compound: "COC1CN(c2ncc(N3CCN(c4cccc(COC(=O)NC(=N)N)c4F)CC3)cn2)C1 [Example 316, trihydrochloride]"
  val: "99%"
- compound: "COCCOc1cc(N2CCN(c3cccc(COC(=O)NC(=N)N)c3F)CC2)ccn1 [Example 565]"
  val: "83%"
